# K obs / 1 per record follows
- assayed target: Prothrombin (Bos taurus) (UniProt P00735)
- assay remarks: Inhibition of bovine thrombin (inhibitor concentration 1.2-54 uM)
Report the figure in M⁻¹ s⁻¹ without appending any unit label.

{"structure smiles string": "N=C(N)SCCCOc1oc(=O)c2cc(NC(=O)NCc3ccccc3)ccc2c1Cl", "reported result": 420}
{"structure smiles string": "CC(=O)Nc1ccc2c(Cl)c(OCCCSC(=N)N)oc(=O)c2c1", "reported result": 420}
{"structure smiles string": "CC(C)(C)OC(=O)N[C@@H](Cc1ccccc1)C(=O)Nc1ccc2c(Cl)c(OCCSC(=N)N)oc(=O)c2c1", "reported result": 1040}
{"structure smiles string": "CCOc1oc(=O)c2cc(NC(=N)N)ccc2c1Cl", "reported result": 55000}
{"structure smiles string": "N=C(N)SCCCOc1oc(=O)c2ccccc2c1Cl", "reported result": 1400}

Fill in the blank: the reported K obs / 1 of `C[C@H](N)C(=O)N[C@@H](C)C(=O)Nc1ccc2c(Cl)c(OCCSC(=N)N)oc(=O)c2c1` is ____.
1070

Query `N=C(N)SCCCOc1oc(=O)c2cc(N)ccc2c1Cl` next
630

----------
List of K obs / 1 values.
- assayed target: Prothrombin (Bos taurus) (UniProt P00735)
- assay remarks: Inhibition of bovine thrombin (inhibitor concentration 1.2-54 uM)
Respond numerically; units are M⁻¹ s⁻¹ and should not be typed.

Answered cases to consult:
{"structure smiles string": "N=C(N)SCCCOc1oc(=O)c2cc(NC(=O)[C@@H](N)Cc3ccccc3)ccc2c1Cl", "assayed target": "Prothrombin (Bos taurus) (UniProt P00735)", "reported property": "K obs / 1", "reported result": 180}
{"structure smiles string": "CC(C)NC(=O)Nc1ccc2c(Cl)c(OCCSC(=N)N)oc(=O)c2c1", "assayed target": "Prothrombin (Bos taurus) (UniProt P00735)", "reported property": "K obs / 1", "reported result": 4100}
{"structure smiles string": "C[C@H](NC(=O)Nc1ccc2c(Cl)c(OCCSC(=N)N)oc(=O)c2c1)c1ccccc1", "assayed target": "Prothrombin (Bos taurus) (UniProt P00735)", "reported property": "K obs / 1", "reported result": 41300}

Fill in: K obs / 1 of `N=C(N)SCCOc1oc(=O)c2cc(NC(=O)Nc3ccccc3)ccc2c1Cl` is ___
25000

Also need `CC(C)(C)OC(=O)N[C@H](Cc1ccccc1)C(=O)Nc1ccc2c(Cl)c(OCCCSC(=N)N)oc(=O)c2c1` , thanks.
330

----------
- assayed target: Prothrombin (Homo sapiens)
- assay remarks: Inhibition of human thrombin (inhibitor concentration 1.2-54 uM)
// K obs / 1 lookup, one value per entry

Record `N=C(N)SCCOc1oc(=O)c2cc(NC(=O)[C@H](N)Cc3ccccc3)ccc2c1Cl` : what is its K obs / 1 with Prothrombin (Homo sapiens)?
1340 M⁻¹ s⁻¹

Next record, please: `CC(C)(C)OC(=O)N[C@H](Cc1ccccc1)C(=O)Nc1ccc2c(Cl)c(OCCSC(=N)N)oc(=O)c2c1`
1140 M⁻¹ s⁻¹

Would you kindly repeat that for `C[C@@H](NC(=O)Nc1ccc2c(Cl)c(OCCSC(=N)N)oc(=O)c2c1)c1ccccc1` ?
12000 M⁻¹ s⁻¹

Input `CC(C)(C)OC(=O)N[C@H](Cc1ccccc1)C(=O)Nc1ccc2c(Cl)c(OCCCSC(=N)N)oc(=O)c2c1`
520 M⁻¹ s⁻¹

Another molecule to look at: `N=C(N)SCCCOc1oc(=O)c2cc(NC(=O)CCc3ccccc3)ccc2c1Cl`
630 M⁻¹ s⁻¹

What about `N=C(N)SCCOc1oc(=O)c2cc(NC(=O)[C@@H](N)Cc3ccccc3)ccc2c1Cl` ?
3070 M⁻¹ s⁻¹

Same question, `N=C(N)SCCOc1oc(=O)c2cc(NC(=O)CCc3ccccc3)ccc2c1Cl` this time
2150 M⁻¹ s⁻¹

// repeat for `C[C@H](NC(=O)Nc1ccc2c(Cl)c(OCCSC(=N)N)oc(=O)c2c1)c1ccccc1` and report
21000 M⁻¹ s⁻¹

Same read-out for `CC(C)(C)OC(=O)N[C@@H](Cc1ccccc1)C(=O)Nc1ccc2c(Cl)c(OCCCSC(=N)N)oc(=O)c2c1` ?
230 M⁻¹ s⁻¹
